For reference, Ki measured on Alpha-1A adrenergic receptor (Homo sapiens, UniProt P35348):
Record the value in nM, omitting the unit from your answer.

Query: Using the record for C[C@H]([C@@H](O)c1ccc(O)cc1)N1CCC(Cc2ccccc2)CC1 [(S,R)-IFENPRODIL] , state its measured Ki.
Response: 27

Query: Using the record for C[C@@H]([C@@H](O)c1ccc(O)cc1)N1CCC(Cc2ccccc2)CC1 [(S)-IFENPRODIL] , state its measured Ki.
Response: 530

Query: Using the record for C[C@@H]([C@H](O)c1ccc(O)cc1)N1CCC(Cc2ccccc2)CC1 [(R,S)-IFENPRODIL] , state its measured Ki.
Response: 140

###

Record form. Attribute: pKi. Fill in for each entry.
pKi: −log10 of the molar value.

Query: Provide pKi, tested on 5-hydroxytryptamine receptor 7 (Homo sapiens), for C[C@@H]([C@H](O)c1ccc(O)cc1)N1CCC(Cc2ccccc2)CC1 [(R,S)-IFENPRODIL] .
Sequence (P34969 whole entry): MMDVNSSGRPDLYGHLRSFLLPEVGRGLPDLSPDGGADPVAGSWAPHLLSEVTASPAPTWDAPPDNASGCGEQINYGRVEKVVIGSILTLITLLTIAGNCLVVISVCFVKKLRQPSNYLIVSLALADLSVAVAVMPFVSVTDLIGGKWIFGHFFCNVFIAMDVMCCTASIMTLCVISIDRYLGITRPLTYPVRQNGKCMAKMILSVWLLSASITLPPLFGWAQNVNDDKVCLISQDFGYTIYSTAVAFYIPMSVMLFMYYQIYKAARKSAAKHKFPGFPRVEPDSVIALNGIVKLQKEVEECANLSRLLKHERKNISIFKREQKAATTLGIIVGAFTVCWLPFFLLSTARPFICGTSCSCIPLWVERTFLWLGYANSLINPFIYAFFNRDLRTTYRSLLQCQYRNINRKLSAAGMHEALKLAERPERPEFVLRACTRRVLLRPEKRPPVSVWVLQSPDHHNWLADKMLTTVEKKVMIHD
Response: 6.29

Query: Provide pKi, tested on 5-hydroxytryptamine receptor 7 (Homo sapiens), for C[C@H]([C@@H](O)c1ccc(O)cc1)N1CCC(Cc2ccccc2)CC1 [(S,R)-IFENPRODIL] .
Response: < 5.00

Query: Provide pKi, tested on 5-hydroxytryptamine receptor 7 (Homo sapiens), for C[C@H]([C@H](O)c1ccc(O)cc1)N1CCC(Cc2ccccc2)CC1 .
Response: < 5.00

Query: Provide pKi, tested on 5-hydroxytryptamine receptor 7 (Homo sapiens), for C[C@@H]([C@@H](O)c1ccc(O)cc1)N1CCC(Cc2ccccc2)CC1 [(S)-IFENPRODIL] .
Response: < 5.00

###

Record form. Attribute: Ki. Fill in for each entry.
Record the value in µM, omitting the unit from your answer.

Query: Provide Ki, tested on Alpha-2A adrenergic receptor (Homo sapiens, UniProt P08913), for C[C@H]([C@H](O)c1ccc(O)cc1)N1CCC(Cc2ccccc2)CC1 .
Sequence (P08913 whole entry): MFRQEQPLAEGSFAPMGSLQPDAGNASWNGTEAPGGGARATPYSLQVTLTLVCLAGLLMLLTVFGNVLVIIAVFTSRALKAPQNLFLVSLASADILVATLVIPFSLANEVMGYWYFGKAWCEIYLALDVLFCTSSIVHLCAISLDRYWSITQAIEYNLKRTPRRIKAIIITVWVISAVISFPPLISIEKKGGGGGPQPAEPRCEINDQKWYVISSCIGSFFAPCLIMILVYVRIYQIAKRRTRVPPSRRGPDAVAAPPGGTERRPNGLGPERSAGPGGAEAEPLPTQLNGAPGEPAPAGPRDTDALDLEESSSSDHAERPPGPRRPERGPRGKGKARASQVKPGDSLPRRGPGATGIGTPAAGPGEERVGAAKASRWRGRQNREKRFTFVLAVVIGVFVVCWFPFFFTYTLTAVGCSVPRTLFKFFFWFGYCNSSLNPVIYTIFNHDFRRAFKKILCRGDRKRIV
Response: 5.5

Query: Provide Ki, tested on Alpha-2A adrenergic receptor (Homo sapiens, UniProt P08913), for C[C@@H]([C@H](O)c1ccc(O)cc1)N1CCC(Cc2ccccc2)CC1 [(R,S)-IFENPRODIL] .
Response: 1.6

Query: Provide Ki, tested on Alpha-2A adrenergic receptor (Homo sapiens, UniProt P08913), for C[C@@H]([C@@H](O)c1ccc(O)cc1)N1CCC(Cc2ccccc2)CC1 [(S)-IFENPRODIL] .
Response: 6.1

Query: Provide Ki, tested on Alpha-2A adrenergic receptor (Homo sapiens, UniProt P08913), for C[C@H]([C@@H](O)c1ccc(O)cc1)N1CCC(Cc2ccccc2)CC1 [(S,R)-IFENPRODIL] .
Response: 2.3

###

Experimental target: 5-hydroxytryptamine receptor 2C (Homo sapiens, UniProt P28335)
Sequence (P28335 whole entry): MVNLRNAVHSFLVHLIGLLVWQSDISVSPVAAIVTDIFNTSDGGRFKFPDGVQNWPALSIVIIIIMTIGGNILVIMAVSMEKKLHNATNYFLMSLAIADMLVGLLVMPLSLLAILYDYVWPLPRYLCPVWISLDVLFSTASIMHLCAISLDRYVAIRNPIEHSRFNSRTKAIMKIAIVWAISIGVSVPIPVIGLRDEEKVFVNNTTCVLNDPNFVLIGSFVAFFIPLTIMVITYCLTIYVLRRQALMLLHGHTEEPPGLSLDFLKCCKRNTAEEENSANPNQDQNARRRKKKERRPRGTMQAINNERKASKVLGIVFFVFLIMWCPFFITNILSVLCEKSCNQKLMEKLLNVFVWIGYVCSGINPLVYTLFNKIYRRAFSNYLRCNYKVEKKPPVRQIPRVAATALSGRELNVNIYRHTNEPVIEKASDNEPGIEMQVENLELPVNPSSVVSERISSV
Assay protocol: Binding affinity to 5-HT2C receptor (unknown origin) incubated for 1 hr by radioligand binding assay
Value kind: Ki

Query: Using the record for C[C@@H]([C@@H](O)c1ccc(O)cc1)N1CCC(Cc2ccccc2)CC1 [(S)-IFENPRODIL] , state its measured Ki.
Response: > 10 µM

Query: Using the record for C[C@@H]([C@H](O)c1ccc(O)cc1)N1CCC(Cc2ccccc2)CC1 [(R,S)-IFENPRODIL] , state its measured Ki.
Response: 0.748 µM

Query: Using the record for C[C@H]([C@@H](O)c1ccc(O)cc1)N1CCC(Cc2ccccc2)CC1 [(S,R)-IFENPRODIL] , state its measured Ki.
Response: > 10 µM

Query: Using the record for C[C@H]([C@H](O)c1ccc(O)cc1)N1CCC(Cc2ccccc2)CC1 , state its measured Ki.
Response: > 10 µM

###

Experimental target: 5-hydroxytryptamine receptor 1A (Homo sapiens)
Sequence (P08908 whole entry): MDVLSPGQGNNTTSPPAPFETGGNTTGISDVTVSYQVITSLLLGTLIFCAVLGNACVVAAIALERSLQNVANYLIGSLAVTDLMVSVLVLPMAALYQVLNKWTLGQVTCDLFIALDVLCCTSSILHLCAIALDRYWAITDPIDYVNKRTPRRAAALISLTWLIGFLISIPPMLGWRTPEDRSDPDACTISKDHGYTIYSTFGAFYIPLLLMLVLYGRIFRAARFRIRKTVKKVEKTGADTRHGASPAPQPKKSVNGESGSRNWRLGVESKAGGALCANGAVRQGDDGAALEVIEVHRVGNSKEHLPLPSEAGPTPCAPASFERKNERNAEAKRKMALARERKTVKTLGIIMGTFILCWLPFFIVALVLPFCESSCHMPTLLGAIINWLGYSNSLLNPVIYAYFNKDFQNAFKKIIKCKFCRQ
Value kind: Ki

Query: Provide Ki, tested on 5-hydroxytryptamine receptor 1A (Homo sapiens), for C[C@H]([C@H](O)c1ccc(O)cc1)N1CCC(Cc2ccccc2)CC1 .
Response: > 1 µM

Query: Provide Ki, tested on 5-hydroxytryptamine receptor 1A (Homo sapiens), for C[C@H]([C@@H](O)c1ccc(O)cc1)N1CCC(Cc2ccccc2)CC1 [(S,R)-IFENPRODIL] .
Response: 0.046 µM

Query: Provide Ki, tested on 5-hydroxytryptamine receptor 1A (Homo sapiens), for C[C@@H]([C@@H](O)c1ccc(O)cc1)N1CCC(Cc2ccccc2)CC1 [(S)-IFENPRODIL] .
Response: > 1 µM

Query: Provide Ki, tested on 5-hydroxytryptamine receptor 1A (Homo sapiens), for C[C@@H]([C@H](O)c1ccc(O)cc1)N1CCC(Cc2ccccc2)CC1 [(R,S)-IFENPRODIL] .
Response: > 1 µM

###

Experimental target: 5-hydroxytryptamine receptor 2A (Homo sapiens, UniProt P28223)
Sequence (P28223 whole entry): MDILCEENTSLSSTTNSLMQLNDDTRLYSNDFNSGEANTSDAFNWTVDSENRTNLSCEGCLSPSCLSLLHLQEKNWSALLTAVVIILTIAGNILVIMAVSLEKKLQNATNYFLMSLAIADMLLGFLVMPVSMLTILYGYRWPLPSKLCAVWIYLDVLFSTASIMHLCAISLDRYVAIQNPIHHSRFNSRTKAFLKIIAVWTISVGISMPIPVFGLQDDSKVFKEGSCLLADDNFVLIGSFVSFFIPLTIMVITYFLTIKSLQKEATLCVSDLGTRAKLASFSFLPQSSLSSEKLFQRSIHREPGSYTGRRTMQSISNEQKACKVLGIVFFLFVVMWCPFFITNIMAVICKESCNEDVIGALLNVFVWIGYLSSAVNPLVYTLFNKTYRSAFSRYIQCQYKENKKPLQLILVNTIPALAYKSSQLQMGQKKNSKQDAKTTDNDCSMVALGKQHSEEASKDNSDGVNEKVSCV
Value kind: Ki (nM)
Record the value in nM, omitting the unit from your answer.

Query: Provide Ki, tested on 5-hydroxytryptamine receptor 2A (Homo sapiens, UniProt P28223), for C[C@H]([C@@H](O)c1ccc(O)cc1)N1CCC(Cc2ccccc2)CC1 [(S,R)-IFENPRODIL] .
Response: 510

Query: Provide Ki, tested on 5-hydroxytryptamine receptor 2A (Homo sapiens, UniProt P28223), for C[C@@H]([C@H](O)c1ccc(O)cc1)N1CCC(Cc2ccccc2)CC1 [(R,S)-IFENPRODIL] .
Response: 421

Query: Provide Ki, tested on 5-hydroxytryptamine receptor 2A (Homo sapiens, UniProt P28223), for C[C@@H]([C@@H](O)c1ccc(O)cc1)N1CCC(Cc2ccccc2)CC1 [(S)-IFENPRODIL] .
Response: 369

Query: Provide Ki, tested on 5-hydroxytryptamine receptor 2A (Homo sapiens, UniProt P28223), for C[C@H]([C@H](O)c1ccc(O)cc1)N1CCC(Cc2ccccc2)CC1 .
Response: 338

###

pKi: −log10 of the molar value.
Record form. Attribute: pKi. Fill in for each entry.

Query: Provide pKi, tested on 5-hydroxytryptamine receptor 6 (Homo sapiens), for C[C@H]([C@H](O)c1ccc(O)cc1)N1CCC(Cc2ccccc2)CC1 .
Sequence (P50406 whole entry): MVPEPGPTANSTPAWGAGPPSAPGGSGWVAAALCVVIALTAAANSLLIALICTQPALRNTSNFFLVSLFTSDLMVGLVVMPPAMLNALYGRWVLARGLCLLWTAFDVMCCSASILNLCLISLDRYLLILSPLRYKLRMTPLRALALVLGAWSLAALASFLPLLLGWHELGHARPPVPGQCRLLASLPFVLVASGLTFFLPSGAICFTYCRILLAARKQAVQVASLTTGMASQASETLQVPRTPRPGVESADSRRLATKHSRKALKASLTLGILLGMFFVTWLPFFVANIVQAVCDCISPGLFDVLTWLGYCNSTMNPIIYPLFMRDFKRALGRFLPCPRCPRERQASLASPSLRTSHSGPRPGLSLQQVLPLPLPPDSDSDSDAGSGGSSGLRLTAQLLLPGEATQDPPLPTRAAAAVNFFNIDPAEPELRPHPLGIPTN
Response: < 5.00

Query: Provide pKi, tested on 5-hydroxytryptamine receptor 6 (Homo sapiens), for C[C@H]([C@@H](O)c1ccc(O)cc1)N1CCC(Cc2ccccc2)CC1 [(S,R)-IFENPRODIL] .
Response: < 6.00

Query: Provide pKi, tested on 5-hydroxytryptamine receptor 6 (Homo sapiens), for C[C@@H]([C@@H](O)c1ccc(O)cc1)N1CCC(Cc2ccccc2)CC1 [(S)-IFENPRODIL] .
Response: < 5.00

Query: Provide pKi, tested on 5-hydroxytryptamine receptor 6 (Homo sapiens), for C[C@@H]([C@H](O)c1ccc(O)cc1)N1CCC(Cc2ccccc2)CC1 [(R,S)-IFENPRODIL] .
Response: < 6.00
